The values you see were collected from patent US8822451B2.

TARGET OF ASSAY: […]F508-CFTR (Homo sapiens, UniProt P13569, DEL508-508)
Construct: expressed in transfected cells
Sequence (P13569 with tags, fused parts or gaps DEL508-508): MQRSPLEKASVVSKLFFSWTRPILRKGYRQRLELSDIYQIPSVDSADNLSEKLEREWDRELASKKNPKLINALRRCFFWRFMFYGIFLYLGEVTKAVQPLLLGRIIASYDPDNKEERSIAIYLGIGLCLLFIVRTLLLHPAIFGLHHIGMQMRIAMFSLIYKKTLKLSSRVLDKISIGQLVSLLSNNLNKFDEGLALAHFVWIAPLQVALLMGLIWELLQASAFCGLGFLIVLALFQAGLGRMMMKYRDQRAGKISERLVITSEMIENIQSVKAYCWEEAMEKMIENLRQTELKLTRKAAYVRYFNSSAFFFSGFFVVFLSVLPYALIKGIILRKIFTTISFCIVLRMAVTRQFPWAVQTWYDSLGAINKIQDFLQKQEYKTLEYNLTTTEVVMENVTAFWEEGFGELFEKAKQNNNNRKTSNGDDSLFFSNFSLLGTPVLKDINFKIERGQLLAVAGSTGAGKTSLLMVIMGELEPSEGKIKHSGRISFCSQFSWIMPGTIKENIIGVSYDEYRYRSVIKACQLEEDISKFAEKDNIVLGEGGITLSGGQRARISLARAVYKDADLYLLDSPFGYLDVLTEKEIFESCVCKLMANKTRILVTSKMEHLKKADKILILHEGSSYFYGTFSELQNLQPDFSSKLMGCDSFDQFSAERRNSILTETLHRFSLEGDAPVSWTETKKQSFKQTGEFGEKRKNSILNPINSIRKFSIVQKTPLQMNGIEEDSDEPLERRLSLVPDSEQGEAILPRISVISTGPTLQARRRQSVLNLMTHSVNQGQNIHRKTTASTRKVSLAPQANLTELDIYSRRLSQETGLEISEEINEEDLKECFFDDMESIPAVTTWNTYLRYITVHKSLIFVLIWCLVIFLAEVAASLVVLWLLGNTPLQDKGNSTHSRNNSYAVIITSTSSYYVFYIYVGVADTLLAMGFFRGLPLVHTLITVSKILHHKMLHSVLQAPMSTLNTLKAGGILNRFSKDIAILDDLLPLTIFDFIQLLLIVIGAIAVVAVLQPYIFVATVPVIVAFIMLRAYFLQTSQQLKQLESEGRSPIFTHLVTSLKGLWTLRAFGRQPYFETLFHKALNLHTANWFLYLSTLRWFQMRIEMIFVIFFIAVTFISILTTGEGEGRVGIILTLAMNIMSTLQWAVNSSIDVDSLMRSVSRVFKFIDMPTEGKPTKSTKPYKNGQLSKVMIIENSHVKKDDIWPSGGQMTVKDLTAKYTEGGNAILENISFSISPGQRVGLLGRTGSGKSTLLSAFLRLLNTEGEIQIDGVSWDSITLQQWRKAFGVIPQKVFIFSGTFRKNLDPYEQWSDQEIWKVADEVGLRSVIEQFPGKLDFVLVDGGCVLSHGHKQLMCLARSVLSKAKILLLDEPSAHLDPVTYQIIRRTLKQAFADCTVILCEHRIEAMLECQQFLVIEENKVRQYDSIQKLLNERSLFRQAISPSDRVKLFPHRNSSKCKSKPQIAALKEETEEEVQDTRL
TEST METHOD NOTES: Assay results of Table 3: ΔF508-CFTR modulation, membrane potential optical assay (assay format not stated)
Type: cell-based
ASSAY CONTEXT: potency range; NIH3T3 mouse fibroblasts stably expressing […]F508-CFTR (optical assays)
pEC50: −log10 of the molar value.
OBSERVABLE: pEC50

* COc1ccccc1-c1cc(C(N)=O)nc(NCC2CCCO2)n1 (stereo not shown) [Compound 193] | 5.30 to 6.00
* CCN(CC)c1nc(C(N)=O)cc(-c2cccc(Cl)c2Cl)n1 [Compound 210] | > 6.00
* CCN(CC)c1nc(C(N)=O)cc(-c2ccc(F)cc2)n1 [Compound 67] | 5.30 to 6.00
* CNC(=O)c1cc(-c2ccccc2)nc(N2CC=CCC2)n1 [Compound 153] | < 5.30
* NC(=O)c1cc(-c2ccccc2)nc(N2CCC(O)(c3cccc(C(F)(F)F)c3)CC2)n1 [Compound 96] | < 5.30
* NC(=O)c1cc(-c2ccccc2)nc(NCC2CC2)n1 [Compound 27] | < 5.30
* CCN(CC)c1nc(C(N)=O)cc(-c2ccc(OC)cc2)n1 [Compound 109] | > 6.00
* CC(C)c1ccc(-c2cc(C(N)=O)nc(N3CCCCC3)n2)cc1 [Compound 166] | < 5.30
* CNC(=O)c1cc(-c2ccccc2)nc(NC)n1 [Compound 103] | > 6.00
* COc1ccccc1-c1cc(C(N)=O)nc(N(CCO)CCO)n1 [Compound 90] | < 5.30
* CCOC(=O)C1CCCN(c2nc(C(N)=O)cc(-c3ccccc3)n2)C1 (stereo not shown) [Compound 59] | 5.30 to 6.00
* Cc1cc(-c2cc(C(N)=O)nc(N3CCCCC3)n2)ccc1F [Compound 175] | < 5.30
* COc1cccc(-c2cc(C(N)=O)nc(NCc3ccco3)n2)c1 [Compound 173] | < 5.30
* CC(C)CCN(C)c1nc(C(N)=O)cc(-c2ccccc2)n1 [Compound 206] | 5.30 to 6.00
* NC(=O)c1cc(-c2ccccc2)nc(N2CC=C(c3ccccc3)CC2)n1 [Compound 53] | < 5.30
* COc1ccc(-c2cc(C(N)=O)nc(N3CC=CCC3)n2)cc1 [Compound 129] | < 5.30
* C=CCN(C)c1nc(C(N)=O)cc(-c2ccccc2)n1 [Compound 14] | 5.30 to 6.00
* COc1ccc(-c2cc(C(N)=O)nc(N(C)C)n2)cc1 [Compound 31] | < 5.30
* NC(=O)c1cc(-c2cc3ccccc3s2)nc(N2CCCCC2)n1 [Compound 170] | 5.30 to 6.00
